# Tested on: patients affected by polyarticular RA
# TEST: Evaluation of efficacy of therapies in course prior to treatment
# Assay type: in vivo, human
# Parameters: key: Nil; Scarce; Good; Excellent
# TEST CONTEXT: single drug in course prior to treatment; single cases
OUTCOME MEASURE: Efficacy of present therapy

Example cases with answers are listed next.
> print(dat)
                                   molecule              outcome.measure  recorded.result
1  CN1C(C(=O)Nc2ccccn2)=C(O)c2ccccc2S1(=O)=O  Efficacy of present therapy           Scarce
2          COc1ccc2cc([C@H](C)C(=O)O)ccc2c1  Efficacy of present therapy             Good
3  CC(C(=O)O)c1cccc(C(=O)c2ccccc2)c1 (centres unmarked)  Efficacy of present therapy              Nil
4            O=C(O)Cc1ccccc1Nc1c(Cl)cccc1Cl  Efficacy of present therapy           Scarce

Value of measured Efficacy of present therapy for the entry `C[C@H]1C[C@@H]2[C@H]([C@@H](O)C[C@@]3(C)[C@H]2CC[C@]3(O)C(=O)CO)[C@@]2(C)C=CC(=O)C=C12` : Scarce
